Test: physchem
ATTRIBUTE MEASURED: logP
Give bare numbers.

Prompt: Endpoint output: logP of CN1CCCC1c1cncc(Br)c1 (stereo not shown) [Compound 8, 5-Bromonicotine] . Value?
Completion: 2.1

---

Target: Aβ fibrils (anti-Aβ IgG) (Homo sapiens)
Sequence (P05067 672-713 limits assumed): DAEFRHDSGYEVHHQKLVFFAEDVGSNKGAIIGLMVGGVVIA
Settings: read-out: % Max Inhib.
Consider the cut-off 80%. If the recorded Emax is strictly smaller, the label is 1; if not, the label is 0.

Here's what some known entries look like.
| MOLECULE | ASSIGNED CATEGORY |
| --- | --- |
| c1cncc(C2CCCN2)c1 (centres unmarked) | 0 |
| CN1CCC[C@H]1COC(=O)c1cccnc1 | 1 |
| CN1CCC[C@H]1COC(=O)c1cncc(Br)c1 | 1 |

Let's switch to this molecule now.
Prompt: API: query returns whether the molecule falls strictly under 80% in Emax. Query: CN1CCCC1c1cncc(Br)c1 (centres unmarked)
Completion: 0

---

Target: Aβ fibrils (anti-Aβ IgG) (Homo sapiens)
Details: anti-Aβ IgG-Aβ fibril binding
ATTRIBUTE MEASURED: Conc at Max Inhib.

Observe how each entry below is paired with its result.
| COMPOUND | TESTED SYSTEM | ATTRIBUTE MEASURED | RESULT |
| --- | --- | --- | --- |
| c1cncc(C2CCCN2)c1 (stereo not drawn) | Aβ fibrils (anti-Aβ IgG) (Homo sapiens) | Conc at Max Inhib. | 700 mM |
| CN1CCC[C@H]1COC(=O)c1cccnc1 | Aβ fibrils (anti-Aβ IgG) (Homo sapiens) | Conc at Max Inhib. | 50 mM |
| CN1CCC[C@H]1COC(=O)c1cncc(Br)c1 | Aβ fibrils (anti-Aβ IgG) (Homo sapiens) | Conc at Max Inhib. | 50 mM |
| OCCOCCOCCOCCN1CCCC1c1cccnc1 (stereo not drawn) | Aβ fibrils (anti-Aβ IgG) (Homo sapiens) | Conc at Max Inhib. | 100 mM |
| CN1CCCC1c1cccnc1 (single isomer, unassigned; (-)) [(−)-Nicotine] | Aβ fibrils (anti-Aβ IgG) (Homo sapiens) | Conc at Max Inhib. | 1,000 mM |

Now look at this entry.
Prompt: Looking for the measured Conc at Max Inhib. of CN1CCCC1c1cncc(Br)c1 (stereo not drawn) , can you help?
Completion: 700 mM
